Source listed as PubChem BioAssay (NCI).

test system: SNB-75 CNS; experiment: NCI tumour cell line growth inhibition, 48 h
In this section we review reported TGI values for a set of compounds.

COMPOUND	SYSTEM_UNDER_TEST	TGI
CC(C)=NNc1ncnc2c1ncn2C1OC(CO)C(O)C1O (configuration not stated)	SNB-75 CNS	> 78.1 µM
COC(=O)CSC1CC(=O)c2c(Cl)sc(Cl)c21 (configuration not stated)	SNB-75 CNS	> 100 µM
c1cc2sc1CSCCSCCSC2	SNB-75 CNS	> 100 µM
O=c1oc2ccc(Cl)cc2cc1C1=CSC2=NCCN12	SNB-75 CNS	> 100 µM
CCN(CC)c1ccc2c(cc1=O)[C@@H](NC(C)=O)CCc1cc(OC)c(OC)c(OC)c1-2	SNB-75 CNS	> 100 µM
CC(O)(CCCCCl)c1nc2ccccc2s1 (configuration not stated)	SNB-75 CNS	> 100 µM
CCOc1ccc(NC(=O)/C(=N\N)C(C(=O)OC)c2nc3ccc(Cl)cc3[nH]c2=O)cc1 (configuration not stated)	SNB-75 CNS	> 100 µM
FC(F)(F)CNc1nccc(-c2cnn3ncccc23)n1	SNB-75 CNS	> 25 µM
O=C1[C@H]2ON(c3ccccc3)C(c3ccc(Cl)cc3Cl)[C@H]2C(=O)N1c1ccc(Cc2ccc(N3C(=O)[C@@H]4ON(c5ccccc5)C(c5ccc(Cl)cc5Cl)[C@@H]4C3=O)cc2)cc1 (some centres not stated)	SNB-75 CNS	> 100 µM
CC1(C)C(=NN=C(N)N)C(C)(C)C1=NN=C(N)N	SNB-75 CNS	> 100 µM
COc1ccc(CN2C(=O)C(Cl)=C(Nc3cccc(O)c3)C2=O)cc1	SNB-75 CNS	> 100 µM
O=C(/C=C/c1cccc([N+](=O)[O-])c1)c1cccnc1	SNB-75 CNS	> 91.5 µM
